Source: ChEMBL document CHEMBL4418299

molecular target: Macrophage colony-stimulating factor 1 receptor (Homo sapiens, UniProt P07333); test: Displacement of kinase tracer 236 from recombinant human His-tagged CSF1R cytoplasmic domain (538 to 910 residues) expressed in baculovirus-infected insect cells measured after 5 hrs by TR-FRET based LanthaScreen assay
Sequence (P07333 whole entry, the tested form may be a part): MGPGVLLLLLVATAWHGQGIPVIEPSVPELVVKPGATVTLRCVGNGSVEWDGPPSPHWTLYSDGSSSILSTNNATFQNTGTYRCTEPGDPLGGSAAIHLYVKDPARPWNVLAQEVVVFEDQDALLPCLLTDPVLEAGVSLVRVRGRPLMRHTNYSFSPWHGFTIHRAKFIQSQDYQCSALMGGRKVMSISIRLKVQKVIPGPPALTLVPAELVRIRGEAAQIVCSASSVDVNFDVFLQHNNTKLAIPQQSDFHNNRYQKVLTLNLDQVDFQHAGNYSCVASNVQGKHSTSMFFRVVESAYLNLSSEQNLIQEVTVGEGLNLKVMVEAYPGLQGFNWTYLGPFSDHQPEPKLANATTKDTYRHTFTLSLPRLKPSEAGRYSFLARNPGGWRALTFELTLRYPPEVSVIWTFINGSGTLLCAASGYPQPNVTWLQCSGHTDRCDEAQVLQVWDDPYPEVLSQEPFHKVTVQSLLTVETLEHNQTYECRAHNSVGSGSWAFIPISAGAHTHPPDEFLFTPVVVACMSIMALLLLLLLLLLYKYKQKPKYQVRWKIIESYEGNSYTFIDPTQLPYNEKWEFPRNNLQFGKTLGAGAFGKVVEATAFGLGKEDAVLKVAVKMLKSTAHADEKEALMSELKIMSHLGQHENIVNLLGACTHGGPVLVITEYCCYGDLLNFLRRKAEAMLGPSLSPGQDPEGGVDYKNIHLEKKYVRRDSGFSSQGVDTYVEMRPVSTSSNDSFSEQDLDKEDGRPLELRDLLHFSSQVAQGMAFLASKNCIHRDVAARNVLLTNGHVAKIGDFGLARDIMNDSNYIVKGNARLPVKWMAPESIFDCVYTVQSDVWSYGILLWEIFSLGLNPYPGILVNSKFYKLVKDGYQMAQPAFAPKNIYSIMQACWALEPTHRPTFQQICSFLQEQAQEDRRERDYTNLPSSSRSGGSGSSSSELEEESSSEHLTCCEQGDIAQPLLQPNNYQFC
pIC50: −log10 of the molar value.
QUANTITY KIND: pIC50

Determine its reported pIC50: Nc1ncnc2c3c(n(-c4ccc(CC(=O)Nc5cccnc5)cc4)c12)CCC3
< 6.70

Determine its reported pIC50: COc1cc(-n2c3c(c4ncnc(N)c42)COC3)ccc1NC(=O)Cc1ccc(C)cc1F
> 8.00

Determine its reported pIC50: COc1cc(-n2c3c(c4ncnc(N)c42)COC3)ccc1NC(=O)Cn1ncc2ccccc21
6.70 to 8.00

Determine its reported pIC50: Nc1ncnc2c3c(n(-c4ccc(NC(=O)Cc5ccc(O)cc5)cc4)c12)CCC3
7.54

Determine its reported pIC50: Nc1ncnc2c3c(n(-c4ccc(CC(=O)Nc5ccc(C(F)(F)F)c(Cl)c5)cc4)c12)CCC3
> 8.00

Determine its reported pIC50: COc1cc(-n2c3c(c4ncnc(N)c42)CCC3)ccc1NC(=O)Cn1cc(C(F)(F)F)nc1C
6.70 to 8.00

Determine its reported pIC50: COc1cc(-n2c3c(c4ncnc(N)c42)CCC3)ccc1CC(=O)Nc1ccc(C2(O)COC2)cc1
6.70 to 8.00

Determine its reported pIC50: COc1cc(-n2c3c(c4ncnc(N)c42)CCC3)ccc1NC(=O)Cc1nnn(C(C)(C)C)n1
> 8.00

Determine its reported pIC50: Nc1ncnc2c3c(n(-c4ccc(NC(=O)Cc5ccccc5)cc4F)c12)CCC3
7.33

Determine its reported pIC50: Nc1ncnc2c3c(n(-c4ccc(CC(=O)Nc5ccc(C(F)(F)F)cn5)cc4)c12)CCC3
6.70 to 8.00

Determine its reported pIC50: COc1cc(-n2c3c(c4ncnc(N)c42)CCC3)ccc1CC(=O)Nc1ccnc(C(F)(F)F)c1
> 8.00

* * *

biological target: Macrophage colony-stimulating factor 1 receptor (Homo sapiens, UniProt P07333); experiment: Displacement of kinase tracer 236 from recombinant human His-tagged CSF1R cytoplasmic domain (538 to 910 residues) expressed in baculovirus-infected insect cells measured after 5 hrs by TR-FRET based LanthaScreen assay
Recorded measurements of IC50, one per entry

>  <RECORD SMILES>
Nc1ncnc2c3c(n(-c4ccc(NC(=O)CN5CCOCC5)cc4)c12)CCC3

>  <IC50>
> 200 nM

$$$$
>  <RECORD SMILES>
COc1ccc(CC(=O)Nc2ccc(-n3c4c(c5ncnc(N)c53)CCC4)cc2)cc1

>  <IC50>
< 10 nM

$$$$
>  <RECORD SMILES>
COc1cc(-n2c3c(c4ncnc(N)c42)CCC3)ccc1NC(=O)Cc1cnn(C)c1

>  <IC50>
10 to 200 nM

$$$$
>  <RECORD SMILES>
COc1cc(-n2c3c(c4ncnc(N)c42)CCC3)ccc1CC(=O)Nc1ccc(C(C)(C)O)cn1

>  <IC50>
10 to 200 nM

$$$$
>  <RECORD SMILES>
Nc1ncnc2c3c(n(-c4ccc(NC(=O)Cc5cc(Cl)ccc5F)cc4)c12)CCC3

>  <IC50>
< 10 nM

$$$$

Determine its reported IC50: Nc1ncnc2c3c(n(-c4ccc(NC(=O)Cc5ccccc5)c(OC(F)(F)F)c4)c12)CCC3
> 200 nM

Determine its reported IC50: Cc1ccc(F)c(CC(=O)Nc2ccc(-n3c4c(c5ncnc(N)c53)CCC4)cc2)c1
< 10 nM

Determine its reported IC50: Nc1ncnc2c3c(n(-c4ccc(NC(=O)c5c[nH]c6ccccc56)cc4)c12)CCC3
> 200 nM

Determine its reported IC50: COc1cc(-n2c3c(c4ncnc(N)c42)CCC3)ccc1NC(=O)Cc1cc(C(F)(F)F)ccc1F
10 to 200 nM
